As shown below, each of these compounds has a reported viability, T/C value.
Test system: K24384-001-R-PDC complex spheroid growth
Test: Anticancer human tumor K24384-001-R-PDC patient-derived pancreatic adenocarcinoma cell line growth inhibition [AhR]
Details: second compound 3.16 µM; first compound 0.316 µM; stronger effect = lower value
Record the value in %, omitting the unit from your answer.

Some entries whose results are on file:
>>> readout_number("Nc1ccccc1NC(=O)c1ccc(CNC(=O)OCc2cccnc2)cc1 + CC(CO)NC(=O)c1cc(-c2ccc(Cl)cc2)nn(-c2cnn(C)c2)c1=O")
79
>>> readout_number("NS(=O)(=O)OCC1CC(n2ccc3c(NC4CCc5ccccc54)ncnc32)CC1O (configuration not stated) + Cc1cncc(-c2nc(NCCc3c[nH]c4ccccc34)c3ncn(C(C)C)c3n2)c1")
59.8
>>> readout_number("CC1(C)CCC(CN2CCN(c3ccc(C(=O)NS(=O)(=O)c4ccc(NCC5CCOCC5)c([N+](=O)[O-])c4)c(Oc4cnc5[nH]ccc5c4)c3)CC2)=C(c2ccc(Cl)cc2)C1 + Cc1cncc(-c2nc(NCCc3c[nH]c4ccccc34)c3ncn(C(C)C)c3n2)c1")
138
>>> readout_number("Nc1ccn(C2OC(CO)C(O)C2(F)F)c(=O)n1 (configuration not stated) + CC(CO)NC(=O)c1cc(-c2ccc(Cl)cc2)nn(-c2cnn(C)c2)c1=O")
72.4
>>> readout_number("CC1(C)CCC(CN2CCN(c3ccc(C(=O)NS(=O)(=O)c4ccc(NCC5CCOCC5)c([N+](=O)[O-])c4)c(Oc4cnc5[nH]ccc5c4)c3)CC2)=C(c2ccc(Cl)cc2)C1 + Cc1ccccc1N=Nc1ccc(NC(=O)c2ccnn2C)c(C)c1")
114

Which viability, T/C is reported for this compound? COc1ccc([C@@H](O)c2cc(-c3ncnc4cc(N5CCOCC5)ccc34)c(F)cc2Cl)nn1 + CC(CO)NC(=O)c1cc(-c2ccc(Cl)cc2)nn(-c2cnn(C)c2)c1=O 80.4

Another compound: Nc1ncn(C2CC(O)C(CO)O2)c(=O)n1 (configuration not stated) + CC(CO)NC(=O)c1cc(-c2ccc(Cl)cc2)nn(-c2cnn(C)c2)c1=O 59.2

Another compound: NS(=O)(=O)OCC1CC(n2ccc3c(NC4CCc5ccccc54)ncnc32)CC1O (configuration not stated) + Cc1ccccc1N=Nc1ccc(NC(=O)c2ccnn2C)c(C)c1 58.3

Another compound: CC1COCCN1c1cc(C2(S(C)(=N)=O)CC2)nc(-c2ccnc3[nH]ccc23)n1 (configuration not stated) + CC(CO)NC(=O)c1cc(-c2ccc(Cl)cc2)nn(-c2cnn(C)c2)c1=O 132

Another compound: Nc1ccccc1NC(=O)c1ccc(CNC(=O)OCc2cccnc2)cc1 + Cc1ccccc1N=Nc1ccc(NC(=O)c2ccnn2C)c(C)c1 80.6

Another compound: O=C(c1cc(Cc2n[nH]c(=O)c3ccccc23)ccc1F)N1CCN(C(=O)C2CC2)CC1 + CC(CO)NC(=O)c1cc(-c2ccc(Cl)cc2)nn(-c2cnn(C)c2)c1=O 83.5

Another compound: NS(=O)(=O)OCC1CC(n2ccc3c(NC4CCc5ccccc54)ncnc32)CC1O (configuration not stated) + CC(CO)NC(=O)c1cc(-c2ccc(Cl)cc2)nn(-c2cnn(C)c2)c1=O 60.6

* * *

Test system: K24384-001-R-PDC complex spheroid growth
Experiment: Anticancer human tumor K24384-001-R-PDC cell line growth inhibition [AhR];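 note: percent of DMSO vehicle-treated spheroid viability set as 100%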
Conditions: second compound 3.16 µM; first compound 1 µM; stronger effect = lower value
PROPERTY: viability, T/C (%)
Record the value in %, omitting the unit from your answer.

>>> readout_number("Nc1ccn(C2OC(CO)C(O)C2(F)F)c(=O)n1 (stereo unspecified) + CC(CO)NC(=O)c1cc(-c2ccc(Cl)cc2)nn(-c2cnn(C)c2)c1=O")
45.6
>>> readout_number("O=C(c1cc(Cc2n[nH]c(=O)c3ccccc23)ccc1F)N1CCN(C(=O)C2CC2)CC1 + Cc1cncc(-c2nc(NCCc3c[nH]c4ccccc34)c3ncn(C(C)C)c3n2)c1")
119
>>> readout_number("Nc1ccccc1NC(=O)c1ccc(CNC(=O)OCc2cccnc2)cc1 + Cc1ccccc1N=Nc1ccc(NC(=O)c2ccnn2C)c(C)c1")
52.9
>>> readout_number("Nc1ncn(C2CC(O)C(CO)O2)c(=O)n1 (stereo unspecified) + Cc1ccccc1N=Nc1ccc(NC(=O)c2ccnn2C)c(C)c1")
57.5
>>> readout_number("Nc1ncn(C2CC(O)C(CO)O2)c(=O)n1 (stereo unspecified) + CC(CO)NC(=O)c1cc(-c2ccc(Cl)cc2)nn(-c2cnn(C)c2)c1=O")
57.3

Next item in the queue.
Which viability, T/C is reported for this molecule? COc1cc(C2c3cc4c(cc3C(OC3OC5COC(C)OC5C(O)C3O)C3COC(=O)C23)OCO4)cc(OC)c1O (stereo unspecified) + Cc1cncc(-c2nc(NCCc3c[nH]c4ccccc34)c3ncn(C(C)C)c3n2)c1 41.2

* * *

Tested on: K24384-001-R-PDC complex spheroid growth
Assay: Anticancer human tumor K24384-001-R-PDC cell line growth inhibition [AhR];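 note: percent of DMSO vehicle-treated spheroid viability set as 100%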
Conditions: second compound 0.1 µM; first compound 1 µM; stronger effect = lower value
From the text: Multicellular complex tumor spheroid response to aryl hydrocarbon receptor antagonists in combination with a variety of drugs and investigational agents in selected tumor cell lines […] Compounds. […] If the clinical Cmax for an agent had not been determined, the highest concentration tested was 10 microM (Table 1). […]
As shown below, each of these molecules has a reported viability, T/C value.
Record the value in %, omitting the unit from your answer.

What measured viability, T/C is associated with COc1ccc([C@@H](O)c2cc(-c3ncnc4cc(N5CCOCC5)ccc34)c(F)cc2Cl)nn1 + Cc1ccccc1N=Nc1ccc(NC(=O)c2ccnn2C)c(C)c1 on K24384-001-R-PDC complex spheroid growth? 66.7

Another molecule: COc1cc(Nc2ncc3c(n2)-c2ccc(Cl)cc2C(c2c(F)cccc2OC)=NC3)ccc1C(=O)O + Cc1cncc(-c2nc(NCCc3c[nH]c4ccccc34)c3ncn(C(C)C)c3n2)c1 43.9

Another molecule: Nc1ccccc1NC(=O)c1ccc(CNC(=O)OCc2cccnc2)cc1 + Cc1cncc(-c2nc(NCCc3c[nH]c4ccccc34)c3ncn(C(C)C)c3n2)c1 69.3

* * *

Tested on: K24384-001-R-PDC complex spheroid growth
Assay: Anticancer human tumor K24384-001-R-PDC cell line growth inhibition [AhR];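 note: percent of DMSO vehicle-treated spheroid viability set as 100%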
Settings: second compound 1 µM; first compound 1 µM; stronger effect = lower value
PROPERTY: viability, T/C (%)
Record the value in %, omitting the unit from your answer.

Some entries whose results are on file:
>>> readout_number("NS(=O)(=O)OCC1CC(n2ccc3c(NC4CCc5ccccc54)ncnc32)CC1O (stereo not given) + CC(CO)NC(=O)c1cc(-c2ccc(Cl)cc2)nn(-c2cnn(C)c2)c1=O")
38.2
>>> readout_number("COc1ccc([C@@H](O)c2cc(-c3ncnc4cc(N5CCOCC5)ccc34)c(F)cc2Cl)nn1 + Cc1ccccc1N=Nc1ccc(NC(=O)c2ccnn2C)c(C)c1")
70.8
>>> readout_number("NS(=O)(=O)OCC1CC(n2ccc3c(NC4CCc5ccccc54)ncnc32)CC1O (stereo not given) + Cc1ccccc1N=Nc1ccc(NC(=O)c2ccnn2C)c(C)c1")
39.5
>>> readout_number("Nc1ccn(C2OC(CO)C(O)C2(F)F)c(=O)n1 (stereo not given) + CC(CO)NC(=O)c1cc(-c2ccc(Cl)cc2)nn(-c2cnn(C)c2)c1=O")
45.3
>>> readout_number("O=C(c1cc(Cc2n[nH]c(=O)c3ccccc23)ccc1F)N1CCN(C(=O)C2CC2)CC1 + CC(CO)NC(=O)c1cc(-c2ccc(Cl)cc2)nn(-c2cnn(C)c2)c1=O")
72.3

Which viability, T/C is reported for this molecule? Nc1ncn(C2CC(O)C(CO)O2)c(=O)n1 (stereo not given) + CC(CO)NC(=O)c1cc(-c2ccc(Cl)cc2)nn(-c2cnn(C)c2)c1=O 62.8

Another molecule: CC1COCCN1c1cc(-c2ccnn2C)c2ccnc(-c3ccn[nH]3)c2n1 (stereo not given) + Cc1ccccc1N=Nc1ccc(NC(=O)c2ccnn2C)c(C)c1 28.6

Another molecule: CC1COCCN1c1cc(-c2ccnn2C)c2ccnc(-c3ccn[nH]3)c2n1 (stereo not given) + Cc1cncc(-c2nc(NCCc3c[nH]c4ccccc34)c3ncn(C(C)C)c3n2)c1 24.6

Another molecule: Nc1ncn(C2CC(O)C(CO)O2)c(=O)n1 (stereo not given) + Cc1cncc(-c2nc(NCCc3c[nH]c4ccccc34)c3ncn(C(C)C)c3n2)c1 66

Another molecule: Nc1ccccc1NC(=O)c1ccc(CNC(=O)OCc2cccnc2)cc1 + CC(CO)NC(=O)c1cc(-c2ccc(Cl)cc2)nn(-c2cnn(C)c2)c1=O 47.4

* * *

System: K24384-001-R-PDC complex spheroid growth
Assay: Anticancer human tumor K24384-001-R-PDC cell line growth inhibition [AhR];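 note: percent of DMSO vehicle-treated spheroid viability set as 100%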
Conditions: second compound 0.1 µM; first compound 0.3 µM; stronger effect = lower value
From the text: Multicellular complex tumor spheroid response to aryl hydrocarbon receptor antagonists in combination with a variety of drugs and investigational agents in selected tumor cell lines […] Compounds. […] If the clinical Cmax for an agent had not been determined, the highest concentration tested was 10 microM (Table 1). […]
PROPERTY: viability, T/C

Some entries whose results are on file:
>>> result("CC(C)CC(NC(=O)C(Cc1ccccc1)NC(=O)c1cnccn1)B(O)O (stereo not given) + Cc1ccccc1N=Nc1ccc(NC(=O)c2ccnn2C)c(C)c1")
"0.42%"
>>> result("O=C(C=Cn1cnc(-c2cc(C(F)(F)F)cc(C(F)(F)F)c2)n1)NNc1cnccn1 + CC(CO)NC(=O)c1cc(-c2ccc(Cl)cc2)nn(-c2cnn(C)c2)c1=O")
"48.7%"
>>> result("Nc1ncn(C2CC(O)C(CO)S2)c(=O)n1 (stereo not given) + Cc1cncc(-c2nc(NCCc3c[nH]c4ccccc34)c3ncn(C(C)C)c3n2)c1")
"73.5%"
>>> result("CCc1c2c(nc3ccc(O)cc13)-c1cc3c(c(=O)n1C2)COC(=O)[C@]3(O)CC + Cc1cncc(-c2nc(NCCc3c[nH]c4ccccc34)c3ncn(C(C)C)c3n2)c1")
"16.8%"
>>> result("O=C(C=Cn1cnc(-c2cc(C(F)(F)F)cc(C(F)(F)F)c2)n1)NNc1cnccn1 + Cc1ccccc1N=Nc1ccc(NC(=O)c2ccnn2C)c(C)c1")
"47.9%"
>>> result("CCN(c1cc(-c2ccc(CN3CCOCC3)cc2)cc(C(=O)NCc2c(C)cc(C)[nH]c2=O)c1C)C1CCOCC1 + CC(CO)NC(=O)c1cc(-c2ccc(Cl)cc2)nn(-c2cnn(C)c2)c1=O")
"107%"
>>> result("O=C(C=Cn1cnc(-c2cc(C(F)(F)F)cc(C(F)(F)F)c2)n1)NNc1cnccn1 + Cc1cncc(-c2nc(NCCc3c[nH]c4ccccc34)c3ncn(C(C)C)c3n2)c1")
"39.3%"
>>> result("CCc1c2c(nc3ccc(O)cc13)-c1cc3c(c(=O)n1C2)COC(=O)[C@]3(O)CC + CC(CO)NC(=O)c1cc(-c2ccc(Cl)cc2)nn(-c2cnn(C)c2)c1=O")
"26.7%"

Which viability, T/C is reported for this molecule? CCc1c2c(nc3ccc(O)cc13)-c1cc3c(c(=O)n1C2)COC(=O)[C@]3(O)CC + Cc1ccccc1N=Nc1ccc(NC(=O)c2ccnn2C)c(C)c1 36.7%

Another molecule: CCN(c1cc(-c2ccc(CN3CCOCC3)cc2)cc(C(=O)NCc2c(C)cc(C)[nH]c2=O)c1C)C1CCOCC1 + Cc1ccccc1N=Nc1ccc(NC(=O)c2ccnn2C)c(C)c1 113%

Another molecule: CCN(c1cc(-c2ccc(CN3CCOCC3)cc2)cc(C(=O)NCc2c(C)cc(C)[nH]c2=O)c1C)C1CCOCC1 + Cc1cncc(-c2nc(NCCc3c[nH]c4ccccc34)c3ncn(C(C)C)c3n2)c1 115%

Another molecule: Nc1ncn(C2CC(O)C(CO)S2)c(=O)n1 (stereo not given) + CC(CO)NC(=O)c1cc(-c2ccc(Cl)cc2)nn(-c2cnn(C)c2)c1=O 72.4%
